Numbers sourced from patent US20260109674A1.

# Target entity: M1 muscarinic receptors expressed in CHO cells (Homo sapiens, UniProt P11229)
# Construct: expressed in transfected cells; host or cells: CHO (CHO-hM1, stably transfected)
# Sequence (P11229 whole entry): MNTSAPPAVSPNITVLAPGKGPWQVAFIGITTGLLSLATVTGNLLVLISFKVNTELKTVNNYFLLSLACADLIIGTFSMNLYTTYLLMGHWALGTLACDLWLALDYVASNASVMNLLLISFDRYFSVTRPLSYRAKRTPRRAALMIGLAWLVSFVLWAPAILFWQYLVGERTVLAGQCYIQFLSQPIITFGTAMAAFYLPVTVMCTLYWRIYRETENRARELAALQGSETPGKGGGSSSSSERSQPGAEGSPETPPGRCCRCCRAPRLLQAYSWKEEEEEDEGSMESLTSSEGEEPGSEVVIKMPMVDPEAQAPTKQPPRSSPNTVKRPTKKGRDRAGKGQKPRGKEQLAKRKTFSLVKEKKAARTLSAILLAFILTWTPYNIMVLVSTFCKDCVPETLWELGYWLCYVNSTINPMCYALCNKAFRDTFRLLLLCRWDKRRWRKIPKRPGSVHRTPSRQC
# Protocol notes: [3H]-arachidonic acid release screen with and without ACh and modulator
# Format: cell-based
# Study conditions: 10 μM modulator, no ACh; Table 4, N = 4-5
# Procedure: CHO cells expressing human M1 muscarinic receptors were cultured at 37° C. in a 5% CO2 atmosphere in F12 medium supplemented with 5% fetal bovine serum, 100 units/mL penicillin, and 100 μg/mL streptomycin. Measurement of [^3H]AA release was performed. […] [^3H]AA release was measured in Eagle's basal medium with 20 mM HEPES and 2 mg/ml fatty acid-free bovine serum albumin (EM-BSA). […]
Task for the reader: assign each of the following compounds its reported Stimulation of [3H]AA release, No ACh (fraction of stimulation above the control).
Numbers only.

Smiles text: COc1c(Br)cc(CN2C(=O)C(=O)c3cc(OC(F)(F)F)ccc32)cc1Br
Result number: 0.15
//
Smiles text: COc1c(I)cc(CN2C(=O)C(=O)c3cc(OC(F)(F)F)ccc32)cc1I
Result number: 0.37
//
Smiles text: COc1c(I)cc(Cn2cc(C(=O)O)c(=O)c3ccccc32)cc1I
Result number: 0.24

The record that follows has no Stimulation of [3H]AA release, No ACh (fraction of stimulation above the control) shown yet.
Query :: Supply recorded Stimulation of [3H]AA release, No ACh (fraction of stimulation above the control) for COc1c(Br)cc(Cn2cc(C(=O)O)c(=O)c3ccccc32)cc1Br here.
Result :: 0.47
